Each recorded value in this set is attributed to patent US20210087522.

Target: T1, AFACP, ACP of the FAS from Anabaena
T1 chain: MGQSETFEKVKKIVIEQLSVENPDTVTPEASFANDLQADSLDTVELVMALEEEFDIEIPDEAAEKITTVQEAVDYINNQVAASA
Listed proteins paired with reported kcat/Km
// units = M⁻¹ s⁻¹; emit number, no label

// worked examples, kcat/Km included
Protein: MPPT, Sfp-like phosphopantetheinyl transferase (PPTase) from Microcystis aeruginosa NIES843 (protein) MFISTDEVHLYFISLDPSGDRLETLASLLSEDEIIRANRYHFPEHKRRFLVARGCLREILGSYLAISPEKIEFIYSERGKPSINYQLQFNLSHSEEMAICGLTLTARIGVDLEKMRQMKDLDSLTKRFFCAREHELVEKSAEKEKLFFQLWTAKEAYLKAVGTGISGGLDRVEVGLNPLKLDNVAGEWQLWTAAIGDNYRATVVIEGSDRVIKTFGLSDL
kcat/Km [M⁻¹ s⁻¹]: 20000
--
Protein: SPPT, Sfp-like phosphopantetheinyl transferase (PPTase) from Synechocystis sp. PCC6803 (protein) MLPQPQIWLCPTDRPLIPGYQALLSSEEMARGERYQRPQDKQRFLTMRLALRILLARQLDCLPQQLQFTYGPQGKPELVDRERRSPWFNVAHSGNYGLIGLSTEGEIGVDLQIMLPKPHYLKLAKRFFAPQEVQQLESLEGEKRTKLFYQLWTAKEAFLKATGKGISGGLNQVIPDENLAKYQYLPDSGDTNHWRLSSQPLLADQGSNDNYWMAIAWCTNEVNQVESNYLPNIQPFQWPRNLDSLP
kcat/Km [M⁻¹ s⁻¹]: 18300
--
Protein: APPT, Sfp-like phosphopantetheinyl transferase (PPTase) from Anabaena sp. PCC7120 (protein) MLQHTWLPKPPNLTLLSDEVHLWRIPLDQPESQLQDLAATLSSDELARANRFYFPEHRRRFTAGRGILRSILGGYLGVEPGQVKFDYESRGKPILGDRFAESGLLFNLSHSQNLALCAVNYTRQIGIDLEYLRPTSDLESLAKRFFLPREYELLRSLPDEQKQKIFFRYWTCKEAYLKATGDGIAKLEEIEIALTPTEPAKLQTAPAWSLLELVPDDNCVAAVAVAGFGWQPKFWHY
kcat/Km [M⁻¹ s⁻¹]: 28300

Proceeding to the next protein to report its kcat/Km.
Q: What value of measured kcat/Km is listed for Sfp, phosphopantetheinyl transferase from Bacillus subtilis (protein) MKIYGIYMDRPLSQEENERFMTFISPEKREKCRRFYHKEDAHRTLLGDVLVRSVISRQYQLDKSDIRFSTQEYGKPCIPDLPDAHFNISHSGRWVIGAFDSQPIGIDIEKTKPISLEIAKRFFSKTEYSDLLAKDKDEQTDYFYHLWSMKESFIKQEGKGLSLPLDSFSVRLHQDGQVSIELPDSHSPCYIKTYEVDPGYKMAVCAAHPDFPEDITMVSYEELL ?
Result: 13300
